# assayed_target: PRKG2 (human) (UniProt Q13237)
# Sequence (Q13237 whole entry, looked up): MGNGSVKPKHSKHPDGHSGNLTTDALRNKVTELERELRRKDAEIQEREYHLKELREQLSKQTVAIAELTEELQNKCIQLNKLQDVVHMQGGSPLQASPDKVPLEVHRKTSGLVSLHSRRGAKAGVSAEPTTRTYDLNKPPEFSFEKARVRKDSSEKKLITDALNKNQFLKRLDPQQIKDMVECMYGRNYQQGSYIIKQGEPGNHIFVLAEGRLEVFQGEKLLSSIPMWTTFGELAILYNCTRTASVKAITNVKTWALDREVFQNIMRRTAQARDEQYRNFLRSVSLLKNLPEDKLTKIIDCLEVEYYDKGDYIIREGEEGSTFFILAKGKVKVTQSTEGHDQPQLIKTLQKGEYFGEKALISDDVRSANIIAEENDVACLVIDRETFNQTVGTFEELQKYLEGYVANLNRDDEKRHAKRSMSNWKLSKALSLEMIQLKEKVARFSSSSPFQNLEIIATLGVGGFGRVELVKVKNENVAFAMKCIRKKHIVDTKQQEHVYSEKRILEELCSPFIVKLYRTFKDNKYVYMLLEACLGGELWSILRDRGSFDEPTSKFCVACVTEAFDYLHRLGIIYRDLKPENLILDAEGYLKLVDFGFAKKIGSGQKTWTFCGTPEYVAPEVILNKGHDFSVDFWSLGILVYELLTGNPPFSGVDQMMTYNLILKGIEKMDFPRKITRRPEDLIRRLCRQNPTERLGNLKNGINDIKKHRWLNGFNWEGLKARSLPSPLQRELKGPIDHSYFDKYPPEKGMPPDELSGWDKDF
# protocol_description: KINOMEscan competition binding
# condition_details: compound 10.0 µM
Categories are assigned from the measured kinase still bound, per cent of control using these intervals: low interval = under 70%, middle interval = from 70% up to 90%, high interval = 90% and over

Answered cases to consult:
CCN1CCN(C(=O)Cc2ccc(Nc3ncc(F)c(Nc4ccc(C(=O)Nc5ccccc5Cl)cc4)n3)cc2)CC1 : low interval
CCN(CC)CCCCNc1ncc2c(n1)N(C)C(=O)N(c1c(Cl)c(OC)cc(OC)c1Cl)C2 : high interval
COc1cc2ncnc(-n3nc(-c4ccccn4)nc3N)c2cc1OC : middle interval
COc1cc(N2CCN(C)CC2)ccc1Nc1ncc2c(n1)N(C)c1ccccc1C(=O)N2C : high interval

For O=c1cc(N2CCOCC2)oc2c(-c3cccc4c3sc3ccccc34)cccc12 , which kinase still bound, per cent of control bin applies?
high interval

For CNC(=O)c1ccc(Nc2cc(Nc3ccccc3S(=O)(=O)C(C)C)c3cc[nH]c3n2)nc1 , which kinase still bound, per cent of control bin applies?
low interval

For O=C(Nc1cccc(Nc2ncc(Br)c(NCCc3cnc[nH]3)n2)c1)N1CCCC1 , which kinase still bound, per cent of control bin applies?
low interval

For CN(C)C/C=C/C(=O)Nc1ccc(C(=O)Nc2cccc(Nc3nccc(-c4cccnc4)n3)c2)cc1 , which kinase still bound, per cent of control bin applies?
middle interval

For NC(=O)Nc1cc(-c2cccc(F)c2)sc1C(=O)N[C@@H]1CCCNC1 , which kinase still bound, per cent of control bin applies?
low interval

Sourced from the kinase profiling compilation of Christmann-Franck et al. (2016)
